# protocol.text: kanamycin survival loss of SKKanGAS strain – BacTiter-Glo luminescence, streptokinase expression inhibitor project, primary screen (AID 1662);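 further: strain carries kanamycin resistance gene driven by streptokinase promoter and grows in 40 µg/ml kanamycin; loss of luminescence reflects streptokinase promoter inhibition or plain growth inhibition; 0% = median of DMSO wells and 100% = positive control at its reference dose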
# conditions: S. pyogenes SKKanGAS, kanamycin growth, 6 h, at 7.5 µM
Out of some 300,000 compounds screened, about 4,000 (1.3%) were called active.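 How the source made its calls: active means mean replicate score, as percent of positive control median, at least 50; inconclusive means mean below 50 but one replicate at or above 50; inactive means mean and every replicate below 50.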 The entries come from a sample that favours actives as a whole.
Could you please pick one outcome from this set? 1.0 for active, 0.0 for inactive

• COC(=O)N/N=C/c1c[n+]([O-])c2ccccc2[n+]1[O-] = 1.0
• Oc1ccc2ccccc2c1N=Nc1nccs1 = 1.0
• N#Cc1c(-c2cccs2)nc(SCC(=O)c2ccc(Br)cc2)[nH]c1=O = 1.0
• COc1cc(OC)cc(C(=O)NC(=S)N2CCN(c3ccc(C(F)(F)F)cc3[N+](=O)[O-])CC2)c1 = 1.0

Assay result, entry "O=C(CSc1nc2ccccc2c(=O)[nH]1)Nc1nc(-c2ccc(Br)cc2)cs1" — outcome?
0.0
